System: Saccharomyces cerevisiae BY4741 SeMeCo community
Assay: z-score of subpopulation abundance vs DMSO median, subpopulation auxotrophic for HLM; higher = larger share of this subpopulation than in DMSO controls
Details: 10 µM; 24 h; SM minimal medium; subpopulation (auxotrophy): HLM
Field: z-score of subpopulation abundance. Provide a value for each of the molecules that follow.

z-score of subpopulation abundance for Cn1cc(C2=C(c3cn(C4CCN(Cc5ccccn5)CC4)c4ccccc34)C(=O)NC2=O)c2ccccc21 is -1.27

z-score of subpopulation abundance for C[CH2][Hg][S]c1ccccc1C(=O)[O-].[Na+] is 131

z-score of subpopulation abundance for CN(C)C(=O)Oc1cccc([N+](C)(C)C)c1 [Neostigmine Bromide] is -0.52

z-score of subpopulation abundance for CC(=O)OCC1=C(C(=O)O)N2C(=O)C(N)C2SC1 (stereo not drawn) is -0.1

z-score of subpopulation abundance for CC1(C)SC2C(N)C(=O)N2C1C(=O)O (stereo not drawn) is -0.43

z-score of subpopulation abundance for CN1[C@@H]2C[C@@H](OC(=O)[C@H](CO)c3ccccc3)C[C@H]1[C@@H]1O[C@@H]12 [Scopolamine HBr] is -0.52

z-score of subpopulation abundance for Nc1nc(N)nc(NC2CC2)n1 is 0.4

z-score of subpopulation abundance for CC[C@@H](C(N)=O)N1CCCC1=O is 0.21

z-score of subpopulation abundance for CC[C@H]1[C@@H]2C[C@H]3[C@@H]4N(C)c5ccccc5[C@]45C[C@@H]([C@@H]2[C@H]5O)N3[C@@H]1O is -0.46

z-score of subpopulation abundance for O=c1[nH]c2ccccc2n1CCCN1CCC(n2c(=O)[nH]c3cc(Cl)ccc32)CC1 is 1.97

z-score of subpopulation abundance for COc1ccc2c3c([nH]c2c1)C(C)=NCC3 is 2.63

z-score of subpopulation abundance for CCOC(=O)Nc1ccc(NCc2ccc(F)cc2)cc1N [Retigabine] is 0.18

z-score of subpopulation abundance for CCN1CC2(OC(=O)c3ccccc3NC(C)=O)CCC(OC)C34C1C(CC23)C1(O)CC(OC)C2CC4C1(O)C2OC (stereo not drawn) is -0.42

z-score of subpopulation abundance for CC(C)(O)C(Cl)(Cl)Cl is -0.04

z-score of subpopulation abundance for CN1[C@@H]2C[C@@H](OC(=O)[C@H](CO)c3ccccc3)C[C@H]1[C@@H]1O[C@@H]12 [Scopolamine HBr trihydrate] is -0.8

z-score of subpopulation abundance for COc1ccc2[nH]cc(CCN)c2c1 is 0.21

z-score of subpopulation abundance for O=C(O[C@H]1C[C@H]2CC[C@@H](C1)[N+]21CCCC1)C(O)(c1ccccc1)c1ccccc1 [Trospium chloride] is 0.01

z-score of subpopulation abundance for COc1ccc(C(CN(C)C)C2(O)CCCCC2)cc1 (stereo not drawn) [Venlafaxine] is -0.65

====

Tested on: Saccharomyces cerevisiae BY4741 SeMeCo community
Assay: z-score of subpopulation abundance vs DMSO median, subpopulation auxotrophic for HLUM; higher = larger share of this subpopulation than in DMSO controls
Settings: 10 µM; 24 h; SM minimal medium; subpopulation (auxotrophy): HLUM
Counter-ions that a name gives are not always drawn.
Field: z-score of subpopulation abundance. Provide a value for each of the molecules that follow.
Keep the answer to the number alone.

z-score of subpopulation abundance for CCN1CC2(OC(=O)c3ccccc3NC(C)=O)CCC(OC)C34C1C(CC23)C1(O)CC(OC)C2CC4C1(O)C2OC (stereo not drawn) is -0.44

z-score of subpopulation abundance for COc1ccc(C(CN(C)C)C2(O)CCCCC2)cc1 (stereo not drawn) [Venlafaxine] is -0.12

z-score of subpopulation abundance for COC(=O)C1=CCCN(C)C1 is -0.09

z-score of subpopulation abundance for C#C[C@]1(O)C=C[C@H]2[C@@H]3CCC4=CC(=O)CC[C@@H]4[C@H]3CC[C@@]21CC is -0.58

z-score of subpopulation abundance for C[N+](C)(C)CCCCCCCCCC[N+](C)(C)C [Decamethonium Bromide] is -0.4

z-score of subpopulation abundance for C=C[C@H]1CN2CC[C@H]1C[C@H]2[C@H](O)c1ccnc2ccccc12 is 0.1

z-score of subpopulation abundance for CC(C)=CCOc1c2occc2cc2ccc(=O)oc12 is 0.23

z-score of subpopulation abundance for Nc1nc(N)nc(NC2CC2)n1 is 1.21

z-score of subpopulation abundance for COc1cc2c(cc1OC)C1CC(=O)C(CC(C)C)CN1CC2 (stereo not drawn) is 2.34

z-score of subpopulation abundance for CC[C@@]1(O)C(=O)OCc2c1cc1n(c2=O)Cc2cc3ccccc3nc2-1 is -0.44

z-score of subpopulation abundance for Nc1ccncc1 is -0.46

z-score of subpopulation abundance for COc1ccc2c3c([nH]c2c1)C(C)=NCC3 is -1.92

z-score of subpopulation abundance for CCN(C)C(=O)Oc1cccc([C@H](C)N(C)C)c1 [Rivastigmine Tartrate] is -0.16

z-score of subpopulation abundance for CC[C@H]1CN2CC[C@]3(C(=O)Nc4ccccc43)[C@@H]2C[C@@H]1/C(=C\OC)C(=O)OC is 0

z-score of subpopulation abundance for Cn1cc(C2=C(c3cn(C4CCN(Cc5ccccn5)CC4)c4ccccc34)C(=O)NC2=O)c2ccccc21 is -0.35

z-score of subpopulation abundance for COc1ccc2c(c1)[C@]13CCCC[C@@H]1[C@H](C2)N(C)CC3 [Dextromethorphan hydrobromide hydrate] is -0.5

z-score of subpopulation abundance for CNC1CC(N)C(O)C(OC2OC(CO)C(O)C3OC4(OC(C(N)CO)C(O)C(O)C4O)OC23)C1O (stereo not drawn) is -0.53

z-score of subpopulation abundance for CN[C@@H]1[C@@H](O)[C@@H](O[C@@H]2[C@@H](O)[C@H](O[C@H]3O[C@H]([C@@H](C)O)[C@@H](O)[C@H](O)[C@H]3N)[C@@H](N)C[C@H]2N)OC[C@]1(C)O [Geneticin (G418 Sulfate)] is -0.56

====

Field: z-score of subpopulation abundance. Provide a value for each of the molecules that follow.
System: Saccharomyces cerevisiae BY4741 SeMeCo community
Experiment: z-score of subpopulation abundance vs DMSO median, subpopulation auxotrophic for LUM; higher = larger share of this subpopulation than in DMSO controls
Details: 10 µM; 24 h; SM minimal medium; subpopulation (auxotrophy): LUM
Structures can show the parent of a compound that is named as a salt.

z-score of subpopulation abundance for COC(=O)C1=CCCN(C)C1 is 0.07

z-score of subpopulation abundance for Oc1cc(Cl)ccc1Oc1ccc(Cl)cc1Cl is 0.02

z-score of subpopulation abundance for O=c1[nH]c2ccccc2n1CCCN1CCC(n2c(=O)[nH]c3cc(Cl)ccc32)CC1 is -0.33

z-score of subpopulation abundance for O=c1cccc2n1C[C@@H]1CNC[C@H]2C1 is -0.47

z-score of subpopulation abundance for COc1ccc2c(c1)[C@]13CCCC[C@@H]1[C@H](C2)N(C)CC3 [Dextromethorphan hydrobromide hydrate] is -0.51

====

Test system: Saccharomyces cerevisiae BY4741 SeMeCo community
Assay: z-score of subpopulation abundance vs DMSO median, subpopulation auxotrophic for L; higher = larger share of this subpopulation than in DMSO controls
Conditions: 10 µM; 24 h; SM minimal medium; subpopulation (auxotrophy): L
Structures can show the parent of a compound that is named as a salt.
Field: z-score of subpopulation abundance. Provide a value for each of the molecules that follow.
Keep the answer to the number alone.

The molecule CN[C@@H]1[C@@H](O)[C@@H](O[C@@H]2[C@@H](O)[C@H](O[C@H]3O[C@H]([C@@H](C)O)[C@@H](O)[C@H](O)[C@H]3N)[C@@H](N)C[C@H]2N)OC[C@]1(C)O [Geneticin (G418 Sulfate)] , when measured on Saccharomyces cerevisiae BY4741 SeMeCo community, yielded z-score of subpopulation abundance of 0.54

The molecule COc1ccc(C(CN(C)C)C2(O)CCCCC2)cc1 (configuration not stated) [Venlafaxine] , when measured on Saccharomyces cerevisiae BY4741 SeMeCo community, yielded z-score of subpopulation abundance of -0.75

The molecule CN(C)[C@@H]1C(=O)C(C(N)=O)=C(O)[C@@]2(O)C(=O)C3=C(O)c4c(O)cccc4[C@@](C)(O)[C@H]3[C@H](O)[C@@H]12 [Oxytetracycline (Terramycin)] , when measured on Saccharomyces cerevisiae BY4741 SeMeCo community, yielded z-score of subpopulation abundance of 0.2

The molecule CC(=O)OCC1=C(C(=O)O)N2C(=O)C(N)C2SC1 (configuration not stated) [7-Aminocephalosporanic acid] , when measured on Saccharomyces cerevisiae BY4741 SeMeCo community, yielded z-score of subpopulation abundance of 0.13

The molecule O=c1[nH]c2ccccc2n1CCCN1CCC(n2c(=O)[nH]c3cc(Cl)ccc32)CC1 [Domperidone] , when measured on Saccharomyces cerevisiae BY4741 SeMeCo community, yielded z-score of subpopulation abundance of 0.55

The molecule CC(NC(C)(C)C)C(=O)c1cccc(Cl)c1 (configuration not stated) [Amfebutamone (Bupropion) HCl] , when measured on Saccharomyces cerevisiae BY4741 SeMeCo community, yielded z-score of subpopulation abundance of 0.13

The molecule CC1(C)SC2C(N)C(=O)N2C1C(=O)O (configuration not stated) [6-Aminopenicillanic acid] , when measured on Saccharomyces cerevisiae BY4741 SeMeCo community, yielded z-score of subpopulation abundance of -0.39
